These measurements were taken from PubChem BioAssay (EPA / NIEHS).

- Read-out: Cytochrome P450 3A7 (Homo sapiens)
- EXPERIMENT NOTES: LTEA_HepaRG_CYP3A7: Life Technologies and Expression Analysis (LTEA) Assay for CYP3A7 using HepaRG (AID 2283492)
- ASSAY CONDITIONS: mRNA level, 48 h; actives raise or lower the signal
Activity calls are given as the source filed them. Rule for the calls: active = hit-call score of the fitted dose curve at least 0.9, where 1 is the maximum; inactive = score below 0.9.
Give one outcome, nothing more. List: y for active, n for inactive

Example cases with answers are listed next.
> print(dat)
                                    compound  category
 1                    COC(=O)c1ccccc1C(=O)OC         n
 2  N#CC(CCc1ccc(Cl)cc1)(Cn1cncn1)c1ccccc1 (configuration not stated)         y
 3  CCCCC(CC)COC(=O)c1ccccc1C(=O)OCC(CC)CCCC (configuration not stated)         n
 4              CCCCOC(=O)c1ccccc1C(=O)OCCCC         n
 5  Cc1c(F)c(F)c(COC(=O)C2C(/C=C(\Cl)C(F)(F)F)C2(C)C)c(F)c1F (configuration not stated)         n
 6                CC1=C(C(=O)Nc2ccccc2)SCCO1         n
 7  CCOC(=O)C(Cl)Cc1cc(-n2nc(C)n(C(F)F)c2=O)c(F)cc1Cl (configuration not stated)         y
 8                      CCNc1nc(Cl)nc(NCC)n1         n
 9                      O=C(O)c1nc(Cl)ccc1Cl         n
10  CC(C)Oc1cc(-n2nc(C(C)(C)C)oc2=O)c(Cl)cc1Cl         n

## Input How was Cc1ccc(-c2c(Cl)nc(C#N)n2S(=O)(=O)N(C)C)cc1 classified in this test?
## Output y

## Input How was CN(C)C(=S)SSC(=S)N(C)C classified in this test?
## Output n
